Run Conditions: 308.15 K; 101.33 kPa; Liquid; Vibrating tube method
Property Name: mass density (kg/m3)
Provide only the numeric value, understood in kg/m3.

CCn1cc[n+](C)c1.N#C[S-] [1-ethyl-3-methylimidazolium thiocyanate] | 1110.8
CCn1cc[n+](C)c1.CO[PH](=O)[O-] [1-ethyl-3-methylimidazolium methyl phosphonate] | 1201.8

Inquiry: Which mass density value is on record for CCn1cc[n+](C)c1.Cc1ccc(S(=O)(=O)[O-])cc1 [1-ethyl-3-methylimidazolium 4-methylbenzenesulfonate] ?
Reply text: 1220

Inquiry: Look at this molecule and give its reported mass density. CCn1cc[n+](C)c1.CS(=O)(=O)[O-] [1-ethyl-3-methylimidazolium methanesulfonate]
Reply text: 1235.6

Inquiry: Look up mass density for this molecule: CCn1cc[n+](C)c1.N#CN=C=[N-] [1-ethyl-3-methylimidazolium dicyanamide]
Reply text: 1097.3

Inquiry: Recorded mass density of CCn1cc[n+](C)c1.O=S(=O)([O-])C(F)(F)F [1-ethyl-3-methylimidazolium trifluoromethanesulfonate] , please.
Reply text: 1377.3

Inquiry: For the molecule CC(=O)[O-].CCn1cc[n+](C)c1 [1-ethyl-3-methylimidazolium acetate] , what mass density is on record?
Reply text: 1093.6

Inquiry: For the molecule CCn1cc[n+](C)c1.COP(=O)([O-])OC [1-ethyl-3-methylimidazolium dimethylphosphate] , what mass density is on record?
Reply text: 1210.5

====

Run Conditions: 288.15 K; 101.33 kPa; Liquid
Label fulfilled when viscosity is at or above 60 mPa·s; anything below gets not fulfilled.

Some solved entries appear below for comparison.
CCn1cc[n+](C)c1.CO[PH](=O)[O-] [1-ethyl-3-methylimidazolium methyl phosphonate] | fulfilled
CCn1cc[n+](C)c1.CS(=O)(=O)[O-] [1-ethyl-3-methylimidazolium methanesulfonate] | fulfilled
CCn1cc[n+](C)c1.N#C[S-] [1-ethyl-3-methylimidazolium thiocyanate] | not fulfilled
CCn1cc[n+](C)c1.O=S(=O)([O-])C(F)(F)F [1-ethyl-3-methylimidazolium trifluoromethanesulfonate] | fulfilled

Inquiry: Given the entry CC(=O)[O-].CCn1cc[n+](C)c1 [1-ethyl-3-methylimidazolium acetate] , answer whether its viscosity meets or surpasses 60 mPa·s.
Reply text: fulfilled

Inquiry: # bool: viscosity of CCn1cc[n+](C)c1.N#CN=C=[N-] [1-ethyl-3-methylimidazolium dicyanamide] >= 60 mPa·s
Reply text: not fulfilled

====

Run Conditions: 358.15 K; 101.33 kPa; Liquid
Property Name: viscosity (mPa·s)
Please reply with the bare figure in mPa·s and do not write the unit itself.

CCn1cc[n+](C)c1.N#CN=C=[N-] [1-ethyl-3-methylimidazolium dicyanamide] | 4.548
CCn1cc[n+](C)c1.N#C[S-] [1-ethyl-3-methylimidazolium thiocyanate] | 5.945
CCn1cc[n+](C)c1.CS(=O)(=O)[O-] [1-ethyl-3-methylimidazolium methanesulfonate] | 15.08

Inquiry: Report viscosity for CCn1cc[n+](C)c1.CO[PH](=O)[O-] [1-ethyl-3-methylimidazolium methyl phosphonate] please.
Reply text: 18.2

Inquiry: Name the reported viscosity value associated with the compound CCn1cc[n+](C)c1.COP(=O)([O-])OC [1-ethyl-3-methylimidazolium dimethylphosphate]
Reply text: 20.07

Inquiry: I have this compound here, CC(=O)[O-].CCn1cc[n+](C)c1 [1-ethyl-3-methylimidazolium acetate] , and I need its recorded viscosity.
Reply text: 12.41

Inquiry: Please give the measured viscosity for this compound: CCn1cc[n+](C)c1.Cc1ccc(S(=O)(=O)[O-])cc1 [1-ethyl-3-methylimidazolium 4-methylbenzenesulfonate]
Reply text: 39.81

Inquiry: What value of viscosity has been recorded for this entry: CCn1cc[n+](C)c1.O=S(=O)([O-])C(F)(F)F [1-ethyl-3-methylimidazolium trifluoromethanesulfonate]
Reply text: 8.948
